Every entry's value here was drawn from PubChem BioAssay (NCI).

Test system: U251 CNS
Assay: NCI tumour cell line growth inhibition, 48 h
metric name: TGI (µM)

1. CC(C)(C)NC/C(=C\c1ccccc1)C(=O)c1ccccc1: 6.41
2. N#Cc1c(N)c(C#N)c2c(c1-c1ccc(Cl)cc1)COc1ccccc1-2: 32.7
3. O=C(Nc1cccc(Cl)c1)c1cc(N=Nc2ccc([N+](=O)[O-])cc2Cl)ccc1O: 7
4. Oc1cc(CN2COc3ccccc32)c(O)cc1CNC1CCCCC1: 32.5
5. Cn1c(-c2ccc(N=NNc3ccc(-c4n[nH]c(=S)n4C)cc3)cc2)n[nH]c1=S: 28.9
6. CCCCCCCCCCCCCCCC(=O)OC1C(O)C(CO)OC(OC)C1NC(=O)N(CCCl)N=O (stereo unspecified): 19.9
7. COc1ccc2c(-c3ccc(O)cc3)c(Oc3ccc(Cl)cc3)c(=O)oc2c1: 20.1
8. Cn1c2c3c(F)c(F)ccc3nc-2cc2ccccc21: 12.9
9. N#Cc1c(N)nc(N2CCSCC2)c(C#N)c1-c1ccc(O)cc1: 28.3
10. CC(=O)Oc1c2oc3cc(O)c(O)cc3c2c(OC(C)=O)c2oc3cc(O)c(O)cc3c12: 3.44
